# TARGET: Dopaminergic D4.2 (Homo sapiens, UniProt P21917, DEL265-296)
# Sequence (P21917 with tags, fused parts or gaps DEL265-296): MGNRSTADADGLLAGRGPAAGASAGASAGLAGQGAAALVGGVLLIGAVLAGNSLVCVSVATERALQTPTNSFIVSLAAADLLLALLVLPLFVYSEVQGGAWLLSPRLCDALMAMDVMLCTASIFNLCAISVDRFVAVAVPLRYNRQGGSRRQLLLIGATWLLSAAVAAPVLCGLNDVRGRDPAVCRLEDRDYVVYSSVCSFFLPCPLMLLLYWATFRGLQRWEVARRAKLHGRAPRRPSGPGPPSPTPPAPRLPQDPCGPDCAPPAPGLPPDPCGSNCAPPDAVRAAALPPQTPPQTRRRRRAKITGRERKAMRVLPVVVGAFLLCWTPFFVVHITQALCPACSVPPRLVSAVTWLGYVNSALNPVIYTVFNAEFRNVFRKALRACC
# PROTOCOL_DESCRIPTION: competitive radioligand binding, Dopaminergic D4.2
# CONDITION_SUMMARY: compound concentration of 1 μM
Where a name gives a salt, the structure may show the parent alone.
MEASUREMENT_NAME: radio-labelled ligand displacement, Dopaminergic D4.2

Use these answered entries as a reference point.
> print(dat)
                                   compound  measured.result
1  Cc1ccc(C=CCn2c3c(c4cc(C)sc42)CN(C)CC3)cc1 [3.11(2)•HCl]              13%
2  Cc1csc2c1c1c(n2CCCc2ccccc2)CCN(C)C1 [3.12(1)•HCl]              73%
3  Cc1cc2c3c(n(CC(O)c4ccccc4)c2s1)CCN(C)C3.Cl (stereo not drawn) [3.7(1)•HCl]              33%
4  CN1CCc2c(c3cc(Cl)sc3n2CCCc2cccc(F)c2)C1 [3.12(6)•HCl]              68%
5  Cc1cc2c3c(n(CCc4ccc(Cl)cc4)c2s1)C(C)CN(C)C3 (stereo not drawn) [3.6(4)•HCl]              54%

Consider the record given below.
Entry Cc1ccc(CCCn2c3c(c4c(Cl)csc42)CN(C)CC3)cc1 [3.12(5)•HCl] : reported radio-labelled ligand displacement, Dopaminergic D4.2 = ?
33%
